Numbers sourced from ChEMBL document CHEMBL3870364.

Recorded selectivity ratio, one value per entry.
Test system: CYP11B1 / CYP11B2
Assay: Selectivity ratio of IC50 for human CYP11B1-8C7 expressed in chinese hamster V79 cells to IC50 for human CYP11B2-CLE9 expressed in chinese hamster V79 cells
Assay type: ADME, cell-based
Settings: read-out: Ratio IC50

sample-smiles | experimental-target | readout-qualifier | selectivity ratio
CN1CC2(CCN(c3cncc4ccccc34)CC2)CC1=O | CYP11B1 / CYP11B2 | = | 9
CC(C)(C)OC(=O)N1CCC2(CCN(c3cncc4ccccc34)CC2)C1 | CYP11B1 / CYP11B2 | > | 7
CC1(C)CN(c2cncc(N3CCC4(CCC(=O)N4)CC3)n2)C1 | CYP11B1 / CYP11B2 | = | 30
CC1(C)CN(c2cncc(N3CCC4(CC3)CNC(=O)C4)n2)C1 | CYP11B1 / CYP11B2 | = | 51
c1ccc2c(N3CCC4(CCNC4)CC3)cncc2c1 | CYP11B1 / CYP11B2 | < | 1
CN1CC2(CCN(c3cncc(N4CC(C)(C)C4)n3)CC2)CC1=O | CYP11B1 / CYP11B2 | = | 47
